Each recorded value in this set is attributed to paper PMC7746742.

# Assay Remarks: Steady state drug levels in plasma after 12 weeks on diet (HPLC-MS)
# Type: in vivo, A/J mice
# Test Context: A/J, mouse, oral, 100 mg/kg diet for 12 weeks, LC-MS, n = 8, mean ± SE
Measure: concentration at 12 weeks
Answer shape: numeric part, then the unit.

Query block: Return concentration at 12 weeks for the following compound: C=C(c1ccc(C(=O)O)cc1)c1cc2c(cc1C)C(C)(C)CCC2(C)C
Result block: 81.2 nM

----------
Parameter IC50: see the listing below.
# System: iNOS
# Assay Remarks: iNOS inhibition assay (LPS-induced NO production, Griess reaction)
# Type: cell-based, murine
# Test Context: Mus musculus; RAW264.7 cells, 0–1000 nM rexinoids, LPS 1 ng/ml 24 h, NO by Griess assay; mean ± SE of 3 experiments; read-out: iNOS suppression IC50
The answer is to be given in µM; state only the numeric part.

Query block: Give IC50 for C=C(c1ccc(C(=O)O)cc1)c1cc(C(C)C)c(OC(C)C)cc1C [MSU-41407] tested on iNOS.
Result block: 0.334

Query block: Give IC50 for CCN(c1cc(C(C)(C)C)cc(C(C)(C)C)c1)c1ccc(C(=O)O)cn1 [MSU-41564] tested on iNOS.
Result block: 0.248
